Overview of reported efflux ratio at 2 h, 10 µM across a group of compounds:
# ASSAY REMARKS: Efflux ratio of apparent permeability across basolateral to apical membrane over apical to basolateral membrane in human Caco2 cells at 10 uM incubated for 120 mins
# Assay type: ADME, cell-based
# APPLIED CONDITIONS: Caco-2
Give the figure only, with no unit attached.

{"COMPOUND": "CC1(C)C(=O)N(c2ccc(C#N)c(C(F)(F)F)c2)C(=S)N1c1ccc(OCCOCCOCCOCCOc2cccc3c2C(=O)N(C2CCC(=O)NC2=O)C3=O)cc1 (configuration not stated)", "efflux ratio at 2 h, 10 µM": 8.4}
{"COMPOUND": "Cc1ncsc1-c1ccc(CNC(=O)[C@@H]2C[C@@H](O)CN2C(=O)[C@@H](NC(=O)COCCCOCCCCCOc2ccc(N3C(=S)N(c4ccc(C#N)c(C(F)(F)F)c4)C(=O)C3(C)C)cc2)C(C)(C)C)cc1", "efflux ratio at 2 h, 10 µM": 0.7}

--- query ---
Input: // efflux ratio at 2 h, 10 µM lookup, key: CC1(C)C(=O)N(c2ccc(C#N)c(C(F)(F)F)c2)C(=S)N1c1ccc(OCCOCCOCCOCCOC23CC4CC(CC(C4)C2)C3)cc1
Output: 1.5
